Molecular target: Sphingosine 1-phosphate receptor 4 (Homo sapiens)
Sequence (O95977 whole entry): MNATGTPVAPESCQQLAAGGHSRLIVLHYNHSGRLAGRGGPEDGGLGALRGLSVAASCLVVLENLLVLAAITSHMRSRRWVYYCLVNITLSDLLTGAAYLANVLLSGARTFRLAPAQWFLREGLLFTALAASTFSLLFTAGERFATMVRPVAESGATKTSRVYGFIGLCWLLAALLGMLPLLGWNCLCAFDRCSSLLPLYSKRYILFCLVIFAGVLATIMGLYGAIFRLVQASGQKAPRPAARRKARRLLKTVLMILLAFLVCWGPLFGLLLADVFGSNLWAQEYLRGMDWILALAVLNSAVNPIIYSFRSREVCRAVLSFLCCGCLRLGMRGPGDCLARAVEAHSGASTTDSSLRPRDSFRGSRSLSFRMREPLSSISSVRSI
Test: Binding potency at human S1P4 receptor by [35S]GTP-gamma-S binding assay

{"ENTRY_SMILES": "CCCCCCCOc1ccc(CC[C@@](C)(N)COP(=O)(O)O)cc1", "EC50": "1.26 nM"}
{"ENTRY_SMILES": "N[C@@H](COP(=O)(O)O)[C@H](O)/C=C/CCCCCCCCCCNc1ccc([N+](=O)[O-])c2nonc12", "EC50": "63.1 nM"}
{"ENTRY_SMILES": "CCCCCCCCCC/C=C/[C@@H](O)[C@@H](N)COP(=O)(O)O", "EC50": "1.26 nM"}
{"ENTRY_SMILES": "C[C@@](N)(CCc1ccc(OCCCCCCCCNc2ccc([N+](=O)[O-])c3nonc23)cc1)COP(=O)(O)O", "EC50": "20 nM"}

----------
Target: UniProt:Q9NYA1
Sequence (Q9NYA1 whole entry): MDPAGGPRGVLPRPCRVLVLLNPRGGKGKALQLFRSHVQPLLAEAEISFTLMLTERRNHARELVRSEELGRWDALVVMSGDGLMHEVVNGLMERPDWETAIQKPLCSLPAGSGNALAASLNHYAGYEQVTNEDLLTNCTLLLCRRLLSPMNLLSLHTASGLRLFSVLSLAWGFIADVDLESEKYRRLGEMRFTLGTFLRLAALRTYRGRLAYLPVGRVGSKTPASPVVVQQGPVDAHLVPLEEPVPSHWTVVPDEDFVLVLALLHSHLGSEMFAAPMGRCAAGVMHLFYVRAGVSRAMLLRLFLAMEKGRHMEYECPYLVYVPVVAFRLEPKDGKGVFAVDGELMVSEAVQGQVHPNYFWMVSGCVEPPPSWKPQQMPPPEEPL
Assay: Rate of phosphorylation by recombinant human SPHK1
Design: concentration or dose not given beside the values
READOUT: Activity

{"ENTRY_SMILES": "C[C@](N)(CO)CCc1ccc(OCCCCNc2ccc([N+](=O)[O-])c3nonc23)cc1", "TARGET_OR_SYSTEM": "UniProt:Q9NYA1", "READOUT": "Activity", "VALUE_MEASURED": "< 0.1%"}
{"ENTRY_SMILES": "CCCCCCCOc1ccc(CC[C@@](C)(N)CO)cc1", "TARGET_OR_SYSTEM": "UniProt:Q9NYA1", "READOUT": "Activity", "VALUE_MEASURED": "4.3%"}
{"ENTRY_SMILES": "C[C@](N)(CO)CCc1ccc(OCCCCCCCCCCCNc2ccc([N+](=O)[O-])c3nonc23)cc1", "TARGET_OR_SYSTEM": "UniProt:Q9NYA1", "READOUT": "Activity", "VALUE_MEASURED": "5.6%"}
{"ENTRY_SMILES": "C[C@](N)(CO)CCc1ccc(OCCCCCCCCNc2ccc([N+](=O)[O-])c3nonc23)cc1", "TARGET_OR_SYSTEM": "UniProt:Q9NYA1", "READOUT": "Activity", "VALUE_MEASURED": "1.9%"}
{"ENTRY_SMILES": "CCCCCCCCc1ccc(CCC(N)(CO)CO)cc1", "TARGET_OR_SYSTEM": "UniProt:Q9NYA1", "READOUT": "Activity", "VALUE_MEASURED": "0.6%"}
{"ENTRY_SMILES": "C[C@](N)(CO)CCc1ccc(OCCCCCCNc2ccc([N+](=O)[O-])c3nonc23)cc1", "TARGET_OR_SYSTEM": "UniProt:Q9NYA1", "READOUT": "Activity", "VALUE_MEASURED": "0.7%"}
